# System: HIV
# Test summary: Test of preparations against HIV in cell culture (T-cell culture assay)
# Assay type: cell-based
# Condition label: Human immunodeficiency virus 1, 72 h; lowest concentration where no giant cells were observed; HIV-infected lymphocytes from donor blood, 3 days at 37° C.
Measured parameter: MIC

Specify measured MIC for CC(C)=CCN1c2ccccc2NC(=S)C1C (racemic) [Example 7-1] .
< 0.16 µg/mL

Specify measured MIC for C[C@H]1C(=O)Nc2ccc(Cl)cc2N1C(=O)Oc1ccc(F)cc1 [Example X] .
0.8 µg/mL

Specify measured MIC for C[C@H]1C(=O)Nc2ccc(Cl)cc2N1C(=O)OCc1ccccc1 [Example III] .
0.8 µg/mL

Specify measured MIC for C=C(C)OC(=O)N1c2cc(Cl)ccc2NC(=S)[C@@H]1C [XXIII] .
< 0.01 µg/mL

Specify measured MIC for CC(C)=CCN1c2cc(Cl)ccc2NC(=O)[C@H]1C [VI-B] .
20 µg/mL

Specify measured MIC for CC(C)=CCN1c2cc(Cl)ccc2NC(=O)[C@@H]1C [VI-A] .
0.16 µg/mL

Specify measured MIC for C=COC(=O)N1c2cc(Cl)ccc2NC(=O)[C@@H]1C [XIV] .
< 0.16 µg/mL

Specify measured MIC for CC(C)=CCN1c2ccccc2NC(=O)C1(C)C [Example XX] .
< 4 µg/mL

Specify measured MIC for C[C@H]1C(=O)Nc2c(cc(Cl)cc2[N+](=O)[O-])N1C(=O)OCc1ccccc1 [Example IV] .
> 0.8 µg/mL

Specify measured MIC for C[C@H]1C(=O)Nc2ccc(Cl)cc2N1C(=O)OCCBr [Example XII] .
< 0.8 µg/mL

Specify measured MIC for CC=CCN1c2cc(Cl)ccc2NC(=O)[C@@H]1C [VII] .
< 0.16 µg/mL
